From: the supplement of paper PMC6555819

- Tested on: RARb homodimer (NR concentration 270 nM)
- method description: PBM binding z-score (relative to random genomic background probes); higher = stronger binding; sequences stand for … in GC…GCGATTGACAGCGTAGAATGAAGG
Use 1 when the recorded PBM binding z-score is no lower than 2; use 0 when it is lower.

See these solved cases before continuing.
{"seq string": "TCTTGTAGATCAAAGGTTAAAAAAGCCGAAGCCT", "category label": 0}
{"seq string": "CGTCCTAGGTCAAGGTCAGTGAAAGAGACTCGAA", "category label": 1}
{"seq string": "CCAGACAGGTGAGAAGGTACCTCAGCCTCGATTA", "category label": 0}

Req: Record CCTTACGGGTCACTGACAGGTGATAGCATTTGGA ; criterion: PBM binding z-score no lower than 2. Met?
Resp: 1

Req: I'd appreciate it if you could say whether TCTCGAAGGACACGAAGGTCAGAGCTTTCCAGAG has PBM binding z-score at least equal to 2.
Resp: 1

Req: Does the reported PBM binding z-score for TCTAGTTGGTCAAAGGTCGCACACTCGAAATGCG fall at or above the 2 mark?
Resp: 1

Req: Identify whether the reported PBM binding z-score of the following sequence is 2 or greater: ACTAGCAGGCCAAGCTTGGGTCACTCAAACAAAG
Resp: 1

Req: Confirm if PBM binding z-score reported for the sequence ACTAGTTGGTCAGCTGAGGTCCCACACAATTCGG is 2 or above.
Resp: 0

Req: Is the recorded value of PBM binding z-score equal to or greater than 2 for this sequence? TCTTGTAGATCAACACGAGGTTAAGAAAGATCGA
Resp: 0

Req: Evaluate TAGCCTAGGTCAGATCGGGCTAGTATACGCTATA : PBM binding z-score at minimum 2?
Resp: 0

Req: Hi team, for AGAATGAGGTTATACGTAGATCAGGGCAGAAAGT , is the recorded PBM binding z-score at or above 2?
Resp: 0

Req: Does PBM binding z-score meet or surpass 2 for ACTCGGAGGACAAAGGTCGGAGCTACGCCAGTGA ?
Resp: 1

----------
- System: LXRa:RXRa (NR concentration 270 nM, RXRa partner concentration 90 nM)
- method description: PBM binding z-score (relative to random genomic background probes); higher = stronger binding; sequences stand for … in GC…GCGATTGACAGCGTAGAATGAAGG
Tick class 1 if PBM binding z-score is 1 or greater. Tick class 0 if PBM binding z-score is less than 1.

Use these answered entries as a reference point.
{"seq string": "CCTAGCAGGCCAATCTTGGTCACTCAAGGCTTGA", "measurement target": "LXRa:RXRa (NR concentration 270 nM, RXRa partner concentration 90 nM)", "category label": "class 0"}
{"seq string": "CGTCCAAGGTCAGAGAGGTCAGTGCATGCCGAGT", "measurement target": "LXRa:RXRa (NR concentration 270 nM, RXRa partner concentration 90 nM)", "category label": "class 1"}
{"seq string": "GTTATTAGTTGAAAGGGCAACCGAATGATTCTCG", "measurement target": "LXRa:RXRa (NR concentration 270 nM, RXRa partner concentration 90 nM)", "category label": "class 1"}
{"seq string": "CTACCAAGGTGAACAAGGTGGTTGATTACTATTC", "measurement target": "LXRa:RXRa (NR concentration 270 nM, RXRa partner concentration 90 nM)", "category label": "class 0"}

Req: PBM binding z-score >= 1 for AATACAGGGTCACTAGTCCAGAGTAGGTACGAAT ?
Resp: class 1

Req: Given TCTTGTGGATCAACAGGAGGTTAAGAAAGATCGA , state whether its PBM binding z-score is at least 1.
Resp: class 1

Req: Evaluate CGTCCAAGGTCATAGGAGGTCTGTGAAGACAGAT : PBM binding z-score at minimum 1?
Resp: class 1

Req: Confirm if PBM binding z-score reported for the sequence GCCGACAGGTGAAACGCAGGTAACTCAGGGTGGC is 1 or above.
Resp: class 0
